Each entry below lists one item and its recorded IC50 value.
# subject of test: CDK7/Cyclin H/MAT1 complex (Homo sapiens, UniProt P50613)
# Sequence (P50613 whole entry): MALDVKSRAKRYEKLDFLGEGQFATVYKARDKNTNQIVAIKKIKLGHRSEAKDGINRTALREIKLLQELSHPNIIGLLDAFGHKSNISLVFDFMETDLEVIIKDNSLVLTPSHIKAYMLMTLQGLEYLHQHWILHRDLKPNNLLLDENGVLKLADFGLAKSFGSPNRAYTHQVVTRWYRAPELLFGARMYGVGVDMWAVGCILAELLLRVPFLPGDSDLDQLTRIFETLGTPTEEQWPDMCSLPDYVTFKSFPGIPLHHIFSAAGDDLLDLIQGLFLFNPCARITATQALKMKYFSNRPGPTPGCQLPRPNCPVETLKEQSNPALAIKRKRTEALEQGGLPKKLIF
# Sequence (P51946 whole entry partner): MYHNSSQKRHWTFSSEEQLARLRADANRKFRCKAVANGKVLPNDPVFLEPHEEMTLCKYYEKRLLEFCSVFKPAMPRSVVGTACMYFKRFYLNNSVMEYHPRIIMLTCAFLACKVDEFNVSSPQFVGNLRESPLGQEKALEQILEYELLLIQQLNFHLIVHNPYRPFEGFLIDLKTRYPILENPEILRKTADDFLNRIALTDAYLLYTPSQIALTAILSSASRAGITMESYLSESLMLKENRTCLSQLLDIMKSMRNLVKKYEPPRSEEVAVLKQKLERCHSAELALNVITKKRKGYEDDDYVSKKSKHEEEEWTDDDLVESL
# Sequence (P51948 whole entry partner): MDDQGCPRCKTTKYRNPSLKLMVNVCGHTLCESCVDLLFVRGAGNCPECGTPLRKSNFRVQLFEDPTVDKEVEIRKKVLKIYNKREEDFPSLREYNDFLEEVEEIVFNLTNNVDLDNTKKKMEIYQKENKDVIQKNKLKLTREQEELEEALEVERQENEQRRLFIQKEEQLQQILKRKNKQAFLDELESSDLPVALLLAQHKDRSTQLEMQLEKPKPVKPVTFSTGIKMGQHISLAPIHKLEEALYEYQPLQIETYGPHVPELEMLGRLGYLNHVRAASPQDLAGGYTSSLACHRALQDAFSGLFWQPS
# test method notes: CDK7 kinase inhibition assay (Caliper/LabChip EZ Reader)
# condition set: CDK7/Cyclin H/MAT1 6 nM, ATP 2 mM, 35 min at 27° C.

Completed entries (count: 3):
compound: FC1(F)CNC[C@@H](Nc2ncc(C(F)(F)F)c(-c3c[nH]c4ccccc34)n2)C1 [Compound 236]
IC50: < 20 nM
--
compound: [O-][S+](c1ccc2c(-c3nc(NC4CCCNC4)ncc3C(F)(F)F)c[nH]c2c1)C(F)F (centres unmarked) [Compound 380]
IC50: < 20 nM
--
compound: CP(C)(=O)c1ccc2c(-c3nc(NC4CCCNC4)ncc3C(F)(F)F)c[nH]c2c1 (centres unmarked) [Compound 354]
IC50: 20 to 200 nM

// query Value lookup for IC50; key = Clc1cnc(NC2CCCNC2)nc1-c1c[nH]c2ccccc12 (centres unmarked) [Compound 101]
// result 200 to 5000 nM

// query Value lookup for IC50; key = COc1cnc(N[C@H]2CCCNC2)nc1-c1c[nH]c2ccccc12 [Compound 189]
// result 200 to 5000 nM

// query Value lookup for IC50; key = CS(=O)(=O)c1c(C#N)ccc2c(-c3nc(NC4CCCNC4)ncc3Cl)c[nH]c12 (centres unmarked) [Compound 294]
// result < 20 nM

// query Value lookup for IC50; key = CC(C)(C)OC(=O)N1CCC[C@H](Nc2ncc(C(F)(F)F)c(-c3c[nH]c4cc(P(C)(C)=O)ccc34)n2)C1 [Compound 352]
// result ≥ 5000 nM

// query Value lookup for IC50; key = CCC1CCC(Nc2ncc(C(F)(F)F)c(-c3c[nH]c4ccccc34)n2)CN1 (centres unmarked) [Compound 211]
// result 20 to 200 nM
